Taken from PubChem BioAssay (NCI).

- Test system: OVCAR-8 ovarian
- assayOverview: NCI-60 one-dose screen, 48 h
- measurementConditions: 10 µM unless noted
The panel holds about 83,000 compounds, 20% with a hit somewhere; the sample as a whole holds those more often. Activity calls are given as the source filed them. The calls were made as follows: active = growth percent below 10; inactive = the rest.
Labels: active, inactive

compound	assignedLabel
CC[C@]12C=CCN3CC[C@@]4(c5ccc(OC)cc5N(C)[C@H]4[C@@](O)(C(=O)OC)[C@@H]1OC(=O)CCCN1CCN(CCCC(=O)O[C@@H]4[C@]5(CC)C=CCN6CC[C@@]7(c8ccc(OC)cc8N(C)[C@H]7[C@@]4(O)C(=O)OC)[C@@H]65)CC1)[C@@H]32	active
O=C1NC(=O)C(CN2C(=O)C3(c4ccccc42)[C@H](Cl)C(=O)N3c2ccccc2)C(=O)N1 (some centres undefined)	inactive
CC12CCC3C(CC=C4CC(O)CCC43C)C1C/C(=C\N1CCOCC1)C2=O (centres undefined)	inactive
C[CH2][Sn]([CH2]C)([CH2]C)[NH]S(=O)(=O)c1ccc(C)cc1	inactive
CC1(C)N=C(N)N=C(N)N1c1ccc(OCCCCNC(=O)c2ccc(S(=O)(=O)F)cc2)c(Cl)c1	inactive
O=C1NC2(CCNCC2)Nc2ccccc21	inactive
CCC(/C=C(C)/C=C/C(=O)c1c(O)c(-c2ccc(O)cc2)c[nH]c1=O)CO (centres undefined)	inactive
CC(C)(C)[Si](C)(C)OC1[C@@H](O[Si](C)(C)C(C)(C)C)[C@@H](CNC(=O)NC(=O)CF)O[C@H]1n1cnc2c(NC(=O)Nc3ccccc3)ncnc21 (some centres undefined)	inactive
O=C(N/N=C/c1ccc(N(CCCl)CCCl)cc1)c1cc(=O)[nH]c(=O)[nH]1	inactive

---

- Test system: HL-60(TB) leukemia
- assayOverview: NCI-60 one-dose screen, 48 h (100 = growth as untreated, 0 = no growth, -100 = all killed)
- measurementConditions: 10 µM unless noted
This is part of a sample that, as a whole, favours compounds with a hit. Of some 83,000 tested, about 20% had one in any assay.
Recorded growth, one value per entry.
testReadout: growth (%)

> print(dat)
                                   compound  measurement
1  NC(=O)N1N=C(c2ccc(Cl)cc2)CC1c1cn(-c2ccccc2)nc1-c1ccc(Cl)cc1 (stereo not given)         80.9
2        O=C(Nc1ccc(Br)c(Cl)c1)c1cc(F)ccc1O        -33.4
3  O=C(/C=C/C12c3ccccc3C(c3ccccc31)C1C(=O)NC(=O)C12)c1ccc(F)cc1 (stereo not given)        -19.5
4        O=c1cc(-c2ccc(Cl)cc2)[nH]c2ccccc12         44.3
5  NC(=S)N/N=C1\c2ccccc2-c2c(F)c(F)c(F)c(F)c21         44.4

---

Recorded growth, one value per entry.
- System: MCF7 breast
- assayOverview: NCI-60 one-dose screen, 48 h (100 = growth as untreated, 0 = no growth, -100 = all killed)
- measurementConditions: 10 µM unless noted
Compounds without any hit were thinned out: in the full panel of roughly 83,000, 20% have a hit.
testReadout: growth (%)

> print(dat)
                                   molecule  measurement
1  OC1(c2ccccc2F)c2ccccc2C2=NCCN21 (configuration not stated)          103
2                 N#CC(C#N)=Cc1ccc2ccccc2c1          103
3                      CNC(=O)Oc1cccc(OC)c1          101
4  CC[C@@H](C)/C=C(C)/C=C/C(=O)c1c(O)c(-c2ccc(O)cc2)cn(O)c1=O         15.4
5  [N-]=[N+]=NC(C(=O)O)c1ccccc1 (configuration not stated)         88.2
6         C/C(=N/OC(=O)N(C)C)c1cc(Cl)ccc1Cl         97.8
7  O=C(O)C1[O][Sb][O]C1C(=O)O (configuration not stated)           92

---

- Tested on: HL-60(TB) leukemia
- assayOverview: NCI-60 one-dose screen, 48 h
- measurementConditions: 10 µM unless noted
- Description: Growth inhibition of the HL-60(TB) human tumor cell line is measured as a screen for anti-cancer activity. Cells are grown in 96 well plates and exposed to the test compound for 48 hours. Compounds are tested at a single concentration, which is 10^-5 M for most compounds. The reported endpoint is percent growth (GI% or GIPRCNT), where numbers from 0 - 100% represent growth inhibition, and numbers from -100% - 0 represent cell death. For example, a value of 40 represents 60% growth inhibition. […]
The panel holds about 83,000 compounds, 20% with a hit somewhere; the sample as a whole holds those more often. Activity calls are given as the source filed them. The calls were made as follows: active = growth percent below 10; inactive = the rest.
Labels: TRUE for active, FALSE for inactive

> print(dat)
                                    compound  assignedlabel
 1  COc1ccc(/C=C2\Oc3cc(OCCCN4CCCCC4)ccc3C2=O)cc1OC          FALSE
 2  O=c1c(CNc2ccc(S(=O)(=O)Nc3ncccn3)cc2)coc2ccccc12          FALSE
 3  CC[C@H](C)[C@H](NC(=O)Nc1ccccc1)C(=O)N(C)[C@H](C[C@@H](OC(C)=O)c1nc(C(=O)N[C@@H](Cc2ccccc2)C[C@H](C)C(=O)OC)cs1)C(C)C           TRUE
 4  COc1cc(-c2nc(-c3nc4ccccc4[nH]3)cc3c2[nH]c2ccccc23)cc(OC)c1OC          FALSE
 5  Cc1ccc(C(=O)c2ccc(CC(=O)N/N=C/c3ccc(O)cc3O)n2C)cc1           TRUE
 6  O=C(NCCCN1CCC(N2CCCCC2)CC1)C1=Cc2cc(Br)ccc2OC1          FALSE
 7  CCCCc1oc2ccccc2c1C(=O)c1cc(I)c(OCCN(CC)CC)c(I)c1           TRUE
 8  OCCN1CCN(c2cc(-c3cccc(OC(F)(F)F)c3)nc3ccc(N4CCCC4)cc23)CC1          FALSE
 9  CCOC(=O)c1sc(/N=C2\NC(=O)/C(=C/c3ccc(N4CCN(C)CC4)cc3)S2)nc1C          FALSE
10  [N-]=[N+]=NCc1ncc(-c2ccc(C(F)(F)F)cc2)c(NC2CCCCCC2)n1          FALSE
11  CC1(C)OC2[C@@H](CNC(=O)NC(=O)NC(=O)CI)O[C@@H](n3cnc4c(NC(=O)Nc5ccccc5)ncnc43)[C@H]2O1 (stereo not given in full)          FALSE
12   OC(c1ccccc1)c1ccccn1 (stereo not given)          FALSE
13  Cn1c(=O)c2[nH]c(SC/C(=N/O)c3ccc(Br)cc3)nc2n(C)c1=O          FALSE
14   CN(C)c1ccc(/C=C(\C#N)c2cc3ccccc3n2C)cc1           TRUE
15                    CCCCOS(=O)(=O)c1ccccc1          FALSE
16  COC(=O)c1nc(=S)[nH]c(C(=O)OC)c1C(=O)c1ccccn1          FALSE
17  CCCCCCCCN(CCCCCCCC)CC(O)c1cc(-c2ccccc2)nc2ccc(OC)cc12 (stereo not given)           TRUE
18   Nc1cc(N)c2nc(NCCc3ccc(Cl)c(Cl)c3)cnc2c1           TRUE
19  COc1ccc(-c2nc3sccn3c2-c2ccnc(NCCCNS(=O)(=O)c3ccc(F)cc3)n2)cc1           TRUE
20  O=C1CCCN1C1CCN2CCCc3cccc1c32 (stereo not given)          FALSE

---

- Tested on: UO-31 renal
- assayOverview: NCI-60 one-dose screen, 48 h (100 = growth as untreated, 0 = no growth, -100 = all killed)
- measurementConditions: 10 µM unless noted
The panel holds about 83,000 compounds, 20% with a hit somewhere; the sample as a whole holds those more often.
Please assign Not satisfied whenever growth is at or above 70%, and Satisfied whenever it is below.

> print(dat)
                                   molecule  assignedlabel
1  CC1(C)N=C(N)N=C(N)N1c1ccc(CCCCc2ccc(S(=O)(=O)F)cc2)c(Cl)c1      Satisfied
2  CC(C)CCC[C@@H](C)[C@H]1CC[C@H]2[C@@H]3CC=C4C[C@@H](OC(=O)Cc5ccc(N(CCCl)CCCl)cc5)CC[C@]4(C)[C@H]3CC[C@]12C  Not satisfied
3  [Br][Pb]([c]1ccccc1)([c]1ccccc1)[c]1ccccc1      Satisfied
4               COC(=O)C(=[N+]=[N-])C(=O)OC  Not satisfied
5                      O=C(CI)Nc1ccc(Br)cc1      Satisfied
6  Cc1cc(NC(=O)CCc2ccc(N3C(N)=NC(N)=NC3(C)C)cc2)ccc1S(=O)(=O)F  Not satisfied
7  O=[N+]([O-])c1ccc2cnn(CSP(=S)(c3ccccc3)c3ccccc3)c2c1      Satisfied
8  COc1cc(C2CC(=O)Nc3nc(N)[se]c32)cc(OC)c1OC (stereo not given)  Not satisfied
9                     CC(C)N=C(NC(C)C)N1CC1  Not satisfied
